- Test system: 817829-284-R-J1-PDC complex spheroids, viability
- procedure summary: Anticancer human tumor 817829-284-R-J1-PDC patient-derived colon adenocarcinoma cell line growth inhibition [CLK]
- test context: second compound 0.0316 µM; first compound 0.1 µM; stronger effect = lower value
quantity: viability, T/C (%)

molecule="CC(=O)O[C@H]1C(=O)[C@@]2(C)[C@H]([C@H](OC(=O)c3ccccc3)[C@]3(O)C[C@H](OC(=O)[C@H](O)[C@@H](NC(=O)c4ccccc4)c4ccccc4)C(C)=C1C3(C)C)[C@]1(OC(C)=O)CO[C@@H]1C[C@@H]2O + CN1CCN(c2cc(C(=O)Nc3cc4cc(-c5cnn(C)c5)ccc4cn3)ccn2)CC1" units=% assay_value=5.12
molecule="C=CC(=O)N1CCN(c2nc(=O)n(-c3c(C)ccnc3C(C)C)c3nc(-c4c(O)cccc4F)c(F)cc23)C(C)C1 (centres undefined) + CNC(=O)c1ccc(Nc2nc(OC3CCCC3)c3c(-c4ccc5nc(C)oc5c4)c[nH]c3n2)c(OC)c1" units=% assay_value=44.3
molecule="COc1cccc2c1C(=O)c1c(O)c3c(c(O)c1C2=O)CC(O)(C(=O)CO)CC3OC1CC(N)C(O)C(C)O1 (centres undefined) + CN1CCN(c2cc(C(=O)Nc3cc4cc(-c5cnn(C)c5)ccc4cn3)ccn2)CC1" units=% assay_value=15.6
molecule="CC(=O)O[C@H]1C(=O)[C@@]2(C)[C@H]([C@H](OC(=O)c3ccccc3)[C@]3(O)C[C@H](OC(=O)[C@H](O)[C@@H](NC(=O)c4ccccc4)c4ccccc4)C(C)=C1C3(C)C)[C@]1(OC(C)=O)CO[C@@H]1C[C@@H]2O + CNC(=O)c1ccc(Nc2nc(OC3CCCC3)c3c(-c4ccc5nc(C)oc5c4)c[nH]c3n2)c(OC)c1" units=% assay_value=11.5

---

- System: 817829-284-R-J1-PDC complex spheroids, viability
- procedure summary: Anticancer human tumor 817829-284-R-J1-PDC cell line growth inhibition [CLK];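 also: spheroids exposed to the agents for seven days before readout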
- test context: second compound 0.1 µM; first compound 0.0316 µM; stronger effect = lower value
- From the text: A high-throughput screen of multi-cell type tumor spheroids was designed to identify active combinations of […] and targeted small molecules. Complex spheroids include a stromal component modeled by human endothelial cells (HUVEC) and fibroblasts modeled by human mesenchymal stem cells (MSCs). […] Compounds. […] If the clinical Cmax for an agent had not been determined, the highest concentration tested was 10 microM. […]
Label key: criterion met means viability, T/C under 20%; criterion not met means viability, T/C of 20% or more.

molecule="COc1cccc2c1C(=O)c1c(O)c3c(c(O)c1C2=O)CC(O)(C(=O)CO)CC3OC1CC(N)C(O)C(C)O1 (stereo not given) + CN1CCN(c2cc(C(=O)Nc3cc4cc(-c5cnn(C)c5)ccc4cn3)ccn2)CC1" label_class="criterion met"
molecule="C#Cc1c(F)ccc2cc(O)cc(-c3ncc4c(N5CC6CCC(C5)N6)nc(OCC56CCCN5CC(F)C6)nc4c3F)c12 (stereo not given) + CNC(=O)c1ccc(Nc2nc(OC3CCCC3)c3c(-c4ccc5nc(C)oc5c4)c[nH]c3n2)c(OC)c1" label_class="criterion not met"
molecule="C=CC(=O)N1CCN(c2nc(=O)n(-c3c(C)ccnc3C(C)C)c3nc(-c4c(O)cccc4F)c(F)cc23)C(C)C1 (stereo not given) + CNC(=O)c1ccc(Nc2nc(OC3CCCC3)c3c(-c4ccc5nc(C)oc5c4)c[nH]c3n2)c(OC)c1" label_class="criterion not met"
molecule="CC(CO)NC(=O)c1cc(-c2ccc(Cl)cc2)nn(-c2cnn(C)c2)c1=O (stereo not given) + CN1CCN(c2cc(C(=O)Nc3cc4cc(-c5cnn(C)c5)ccc4cn3)ccn2)CC1" label_class="criterion met"
molecule="O=C(c1cc(Cc2n[nH]c(=O)c3ccccc23)ccc1F)N1CCN(C(=O)C2CC2)CC1 + CNC(=O)c1ccc(Nc2nc(OC3CCCC3)c3c(-c4ccc5nc(C)oc5c4)c[nH]c3n2)c(OC)c1" label_class="criterion not met"
